experiment: Assessment of pH solubility of crystalline salts in buffers; format: physicochemical; details: pH 7.0
Counter-ions that a name gives are not always drawn.
property-measured: Solubility (µg/mL)

compound	Solubility, µg/mL
CC[C@@H](c1ccccc1)N1Cc2cc3c(cc2C[C@H]1C(=O)N[C@@H](Cc1ccc(-c2ccnc(C)c2C)cc1)C(=O)O)OC[C@H](c1ccc(OCc2ccc(Cl)c(Cl)c2)cc1)O3 [Crystal form C of p-toluenesulfonate]	93
CC[C@@H](c1ccccc1)N1Cc2cc3c(cc2C[C@H]1C(=O)N[C@@H](Cc1ccc(-c2ccnc(C)c2C)cc1)C(=O)O)OC[C@H](c1ccc(OCc2ccc(Cl)c(Cl)c2)cc1)O3 [Crystal form C of sulfate]	96

I: CC[C@@H](c1ccccc1)N1Cc2cc3c(cc2C[C@H]1C(=O)N[C@@H](Cc1ccc(-c2ccnc(C)c2C)cc1)C(=O)O)OC[C@H](c1ccc(OCc2ccc(Cl)c(Cl)c2)cc1)O3 [Crystal form B of hydrochloride]
II: CC[C@@H](c1ccccc1)N1Cc2cc3c(cc2C[C@H]1C(=O)N[C@@H](Cc1ccc(-c2ccnc(C)c2C)cc1)C(=O)O)OC[C@H](c1ccc(OCc2ccc(Cl)c(Cl)c2)cc1)O3 [Crystal form C of hydrobromide]
Request: Which of these two has the smaller recorded Solubility: I or II ? Response format: the label of the selected entry.
Result: II
(II: 39 µg/mL, I: 109 µg/mL)

* * *

assay: Assessment of pH solubility of crystalline salts in buffers; format: physicochemical; details: pH 5.0
Structures can show the parent of a compound that is named as a salt.
property-measured: Solubility (µg/mL)

molecule	readout-units	numeric-readout
CC[C@@H](c1ccccc1)N1Cc2cc3c(cc2C[C@H]1C(=O)N[C@@H](Cc1ccc(-c2ccnc(C)c2C)cc1)C(=O)O)OC[C@H](c1ccc(OCc2ccc(Cl)c(Cl)c2)cc1)O3 [Crystal form C of sulfate]	µg/mL	1
CC[C@@H](c1ccccc1)N1Cc2cc3c(cc2C[C@H]1C(=O)N[C@@H](Cc1ccc(-c2ccnc(C)c2C)cc1)C(=O)O)OC[C@H](c1ccc(OCc2ccc(Cl)c(Cl)c2)cc1)O3 [Crystal form B of hydrochloride]	µg/mL	1

P: CC[C@@H](c1ccccc1)N1Cc2cc3c(cc2C[C@H]1C(=O)N[C@@H](Cc1ccc(-c2ccnc(C)c2C)cc1)C(=O)O)OC[C@H](c1ccc(OCc2ccc(Cl)c(Cl)c2)cc1)O3 [Crystal form C of p-toluenesulfonate]
Q: CC[C@@H](c1ccccc1)N1Cc2cc3c(cc2C[C@H]1C(=O)N[C@@H](Cc1ccc(-c2ccnc(C)c2C)cc1)C(=O)O)OC[C@H](c1ccc(OCc2ccc(Cl)c(Cl)c2)cc1)O3 [Crystal form C of hydrobromide]
Request: Larger number for Solubility: P , or Q ? Response format: the label of the selected entry.
Result: Q
(Q: 4 µg/mL, P: 1 µg/mL)

* * *

assay: Hygroscopicity, dynamic moisture adsorption (DVS) test; assay type: physicochemical; conditions: before and after the DVS test
Where a name gives a salt, the structure may show the parent alone.
property-measured: Change of crystal form, yes/no

compound	property-measured	result
CC[C@@H](c1ccccc1)N1Cc2cc3c(cc2C[C@H]1C(=O)N[C@@H](Cc1ccc(-c2ccnc(C)c2C)cc1)C(=O)O)OC[C@H](c1ccc(OCc2ccc(Cl)c(Cl)c2)cc1)O3 [Crystal form C of p-toluenesulfonate]	Change of crystal form, yes/no	No
CC[C@@H](c1ccccc1)N1Cc2cc3c(cc2C[C@H]1C(=O)N[C@@H](Cc1ccc(-c2ccnc(C)c2C)cc1)C(=O)O)OC[C@H](c1ccc(OCc2ccc(Cl)c(Cl)c2)cc1)O3 [Crystal form B of hydrochloride]	Change of crystal form, yes/no	No
CC[C@@H](c1ccccc1)N1Cc2cc3c(cc2C[C@H]1C(=O)N[C@@H](Cc1ccc(-c2ccnc(C)c2C)cc1)C(=O)O)OC[C@H](c1ccc(OCc2ccc(Cl)c(Cl)c2)cc1)O3 [Crystal form C of hydrobromide]	Change of crystal form, yes/no	No
CC[C@@H](c1ccccc1)N1Cc2cc3c(cc2C[C@H]1C(=O)N[C@@H](Cc1ccc(-c2ccnc(C)c2C)cc1)C(=O)O)OC[C@H](c1ccc(OCc2ccc(Cl)c(Cl)c2)cc1)O3 [Crystal form C of sulfate]	Change of crystal form, yes/no	No
